tested on: Mycobacterium tuberculosis; assay: Antimycobacterial activity against XDR clinical isolate Mycobacterium tuberculosis 9449/2007 assessed as inhibition of mycobacterial growth measured after 14 to 21 days of incubation by Sulas semisynthetic medium based assay; format: functional; settings: time 14-21 day
Measured MIC99 of individual entries
Respond with the bare value in µM.

{"structure as smiles": "O=c1[nH]c(N2CCOCC2)nc2ncn(Cc3ccc4ccccc4c3)c12", "assayed target": "Mycobacterium tuberculosis", "measured value": 64}
{"structure as smiles": "Nc1nc(N2CCOCC2)nc2ncn(Cc3ccc4ccccc4c3)c12", "assayed target": "Mycobacterium tuberculosis", "measured value": 4}
{"structure as smiles": "COc1nc(N2CCOCC2)nc2ncn(Cc3ccc4ccccc4c3)c12", "assayed target": "Mycobacterium tuberculosis", "measured value": 16}

Okay, next one:
Task: Provide only the value of recorded MIC99 for c1ccc(CNc2nc(N3CCOCC3)nc3ncn(Cc4ccc5ccccc5c4)c23)cc1
Result: 4
